Reported log10 IC50 values for the following compounds.
biological target: Cbl-b (Homo sapiens (Human), UniProt Q13191); assay: Cbl-b LCK Ub TR-FRET assay (Cbl-b Lck HTRF); format: biochemical
Sequence (Q13191 40-426): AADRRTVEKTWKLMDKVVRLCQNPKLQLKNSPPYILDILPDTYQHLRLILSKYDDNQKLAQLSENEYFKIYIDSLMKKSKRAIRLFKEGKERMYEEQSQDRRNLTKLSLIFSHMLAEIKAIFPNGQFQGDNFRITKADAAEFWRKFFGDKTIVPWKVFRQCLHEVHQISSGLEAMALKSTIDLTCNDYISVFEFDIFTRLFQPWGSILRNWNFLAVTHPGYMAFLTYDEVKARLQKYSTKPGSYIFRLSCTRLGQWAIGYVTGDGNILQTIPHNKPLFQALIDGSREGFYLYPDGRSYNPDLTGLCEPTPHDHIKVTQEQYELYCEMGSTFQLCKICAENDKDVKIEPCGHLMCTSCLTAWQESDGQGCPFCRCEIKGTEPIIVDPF
ENDPOINT: log10 IC50 (log10 of the value in nM)

>  <COMPOUND>
CC(C)[C@H]1CN(S(C)(=O)=O)CCN1Cc1cc2c(c(C(F)(F)F)c1)CN(c1cccc(C3([C@H](F)c4nncn4C)COC3)c1)C2=O [Compound 196]

>  <ENDPOINT>
log10 IC50

>  <VALUE REPORTED>
2.38

$$$$
>  <COMPOUND>
Cc1cccc2c1CN(c1cccc(C3([C@@H](F)c4nncn4C)COC3)c1)C2=O [Compound 208]

>  <ENDPOINT>
log10 IC50

>  <VALUE REPORTED>
3.15

$$$$
>  <COMPOUND>
COCCN1CCC(Nc2cc(C3(Cc4nncn4C)CCC3)cc(N3Cc4c(cc(CNC5(C)CCC5)cc4C(F)(F)F)C3=O)n2)CC1 [Compound 302]

>  <ENDPOINT>
log10 IC50

>  <VALUE REPORTED>
2.77

$$$$
>  <COMPOUND>
Cn1cnnc1CC1(c2cc(NCC(N)=O)nc(N3Cc4c(cccc4C(F)(F)F)C3=O)c2)COC1 [Compound 491]

>  <ENDPOINT>
log10 IC50

>  <VALUE REPORTED>
3.93

$$$$
>  <COMPOUND>
CC(C)[C@@H]1CN(Cc2cc3c(c(C(F)(F)F)c2)CN(c2cccc(C4(Cc5nncn5C)CC(F)(F)C4)c2)C3=O)CCN1 [Compound 428]

>  <ENDPOINT>
log10 IC50

>  <VALUE REPORTED>
1.15

$$$$
>  <COMPOUND>
C[C@@H]1CN(Cc2cc3c(c(C(F)(F)F)c2)CN(c2cccc(C4([C@@H](F)c5nncn5C)COC4)c2)C3=O)CCCO1 [Compound 119]

>  <ENDPOINT>
log10 IC50

>  <VALUE REPORTED>
1.68

$$$$
>  <COMPOUND>
Cn1cnnc1[C@H](F)C1(c2cccc(N3Cc4c(cc([C@@H](N)C5CCC5)cc4C(F)(F)F)C3=O)c2)COC1 [Compound 391]

>  <ENDPOINT>
log10 IC50

>  <VALUE REPORTED>
1.52

$$$$
>  <COMPOUND>
Cn1cnnc1[C@H](F)C1(c2cccc(N3Cc4c(cc([C@@H](N)C5CC5)cc4C(F)(F)F)C3=O)c2)COC1 [Compound 53]

>  <ENDPOINT>
log10 IC50

>  <VALUE REPORTED>
1.53

$$$$
>  <COMPOUND>
CC(C)N(C)Cc1cc2c(c(C(F)(F)F)c1)CN(c1cccc(C3([C@H](F)c4nncn4C)CC(F)(F)C3)c1)C2=O [Compound 420]

>  <ENDPOINT>
log10 IC50

>  <VALUE REPORTED>
2.38

$$$$
>  <COMPOUND>
Cn1cnnc1CC1(c2cc(NC3CCC(F)(F)C3)nc(N3Cc4c(cccc4C(F)(F)F)C3=O)c2)COC1 (stereo not shown) [Compound 483]

>  <ENDPOINT>
log10 IC50

>  <VALUE REPORTED>
3.26

$$$$
>  <COMPOUND>
Cn1cnnc1C(F)(F)C1(c2cccc(N3Cc4c(cc(CN5CC(C)(O)C5)cc4C(F)(F)F)C3=O)c2)CC(F)(F)C1 [Compound 383]

>  <ENDPOINT>
log10 IC50

>  <VALUE REPORTED>
2.69

$$$$
>  <COMPOUND>
COC(C)(C)CNCc1cc2c(c(C(F)(F)F)c1)CN(c1cccc(C3(Cc4nncn4C)CC(F)(F)C3)c1)C2=O [Compound 373]

>  <ENDPOINT>
log10 IC50

>  <VALUE REPORTED>
1.30

$$$$
>  <COMPOUND>
Cc1ccn(CC2(c3cccc(N4Cc5c(cc(CN6CCN(C)C[C@@H]6C(C)C)cc5C(F)(F)F)C4=O)c3)COC2)n1 [Compound 264]

>  <ENDPOINT>
log10 IC50

>  <VALUE REPORTED>
3.85

$$$$

====

target: UniProt:P22681; experiment: C-Cbl LCK Ub TR-FRET assay (c-cbl Lck HTRF); assay type: biochemical
pIC50: −log10 of the molar value. Structures can show the parent of a compound that is named as a salt.
// pIC50 lookup, one value per entry

>  <MOLECULE>
CC(C)[C@H]1CN(C)CCN1C(C)c1cc2c(c(C(F)(F)F)c1)CN(c1cccc(C3([C@@H](F)c4nncn4C)CC(F)(F)C3)c1)C2=O (some centres unmarked)

>  <pIC50>
7.20

$$$$
>  <MOLECULE>
Cc1ccn(CC2(c3cccc(N4Cc5c(cc(CN6CCN(C)C[C@@H]6C(C)C)cc5C(F)(F)F)C4=O)c3)COC2)n1

>  <pIC50>
4.96

$$$$
>  <MOLECULE>
Cn1cnnc1[C@H](F)C1(c2cccc(N3Cc4c(cc(CN5CC(C)(CO)C5)cc4C(F)(F)F)C3=O)c2)COC1

>  <pIC50>
6.92

$$$$
>  <MOLECULE>
Cn1cnnc1CC1(c2cc(C3CCC3)nc(N3Cc4c(cccc4C(F)(F)F)C3=O)c2)COC1

>  <pIC50>
5.89

$$$$
>  <MOLECULE>
Cn1cnnc1[C@@H](F)C1(c2cccc(N3Cc4c(cc(CN5CC6CC6C5)cc4C(F)(F)F)C3=O)c2)COC1 (some centres unmarked)

>  <pIC50>
6.43

$$$$
>  <MOLECULE>
Cn1cnnc1CC1(c2cc(NCC3CCOCC3)nc(N3Cc4c(cc(CNC5(C)CCC5)cc4C(F)(F)F)C3=O)c2)CCC1

>  <pIC50>
6.72

$$$$
>  <MOLECULE>
Cn1cnnc1CC1(c2ccnc(N3Cc4c(cc(CNC5(C)CCC5)cc4C(F)(F)F)C3=O)c2)CCC1

>  <pIC50>
7.80

$$$$
>  <MOLECULE>
Cn1cnnc1CC1(c2cc(CC3CCCC3)nc(N3Cc4c(cccc4C(F)(F)F)C3=O)c2)COC1

>  <pIC50>
5.29

$$$$
>  <MOLECULE>
Cc1ncnn1CC1(c2cccc(N3Cc4c(cc(CN5CCN(C)C[C@@H]5C(C)C)cc4C(F)(F)F)C3=O)c2)COC1

>  <pIC50>
5.49

$$$$
>  <MOLECULE>
CC(C)N(C)Cc1cc2c(c(C(F)(F)F)c1)CN(c1cccc(C3([C@@H](F)c4nncn4C)CC(F)(F)C3)c1)C2=O

>  <pIC50>
6.38

$$$$
>  <MOLECULE>
Cn1cnnc1CC1(c2cccc(N3Cc4c(cc(CNC5(C)CCC5)c(F)c4C(F)(F)F)C3=O)c2)CC(F)(F)C1

>  <pIC50>
7.85

$$$$
>  <MOLECULE>
C[C@@H]1COCCN1c1cc(C2(Cc3nncn3C)COC2)cc(N2Cc3c(cccc3C(F)(F)F)C2=O)n1

>  <pIC50>
5.46

$$$$
>  <MOLECULE>
CCCNCc1cc2c(c(C(F)(F)F)c1)CN(c1cccc(C3([C@@H](F)c4nncn4C)COC3)c1)C2=O [Compound 228, formate]

>  <pIC50>
7.02

$$$$
>  <MOLECULE>
CC(C)[C@H]1CN(Cc2cc3c(c(C(F)(F)F)c2)CN(c2cccc(C4([C@H](F)c5nncn5C)COC4)c2)C3=O)CCN1

>  <pIC50>
6.77

$$$$

====

biological target: c-Cbl (Homo sapiens (Human)); test: C-Cbl LCK Ub TR-FRET assay (c-cbl Lck HTRF); format: biochemical; conditions: C-cbl Lck HTRF IC50 relative to Cbl-b Lck HTRF IC50

>  <SMILES RECORD>
C[C@@H](N)c1cc2c(c(C(F)(F)F)c1)CN(c1cccc(C3([C@@H](F)c4nncn4C)COC3)c1)C2=O

>  <(fold-selectivity) (x)>
1.5

$$$$
>  <SMILES RECORD>
CC(C)[C@H]1CN(C)CCN1Cc1cc2c(c(C(F)(F)F)c1)CN(c1cccc(C3([C@@H](F)c4nncn4C)COC3)c1)C2=O

>  <(fold-selectivity) (x)>
1.1

$$$$

====

Quick reference for (fold-selectivity) among some compounds
target: c-Cbl (Homo sapiens (Human), UniProt P22681); assay: C-Cbl LCK Ub TR-FRET assay (c-cbl Lck HTRF); assay type: biochemical; settings: C-cbl Lck HTRF IC50 relative to Cbl-b Lck HTRF IC50
Sequence (P22681 47-435): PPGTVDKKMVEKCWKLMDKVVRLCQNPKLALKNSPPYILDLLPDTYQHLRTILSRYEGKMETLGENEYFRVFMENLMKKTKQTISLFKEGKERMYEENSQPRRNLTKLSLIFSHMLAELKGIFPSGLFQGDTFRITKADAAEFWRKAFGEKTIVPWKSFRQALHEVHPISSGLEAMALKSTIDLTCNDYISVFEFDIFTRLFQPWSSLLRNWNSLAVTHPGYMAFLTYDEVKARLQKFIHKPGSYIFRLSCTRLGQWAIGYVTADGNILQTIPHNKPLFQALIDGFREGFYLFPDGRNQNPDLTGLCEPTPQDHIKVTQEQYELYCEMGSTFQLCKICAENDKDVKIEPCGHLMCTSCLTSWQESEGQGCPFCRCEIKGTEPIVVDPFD

>  <COMPOUND>
C[C@H](c1cc2c(c(C(F)(F)F)c1)CN(c1cccc(C3([C@H](F)c4nncn4C)COC3)c1)C2=O)N1CC(C)(F)C1

>  <(fold-selectivity)>
1.8x

$$$$
>  <COMPOUND>
Cn1cnnc1[C@H](F)C1(c2cccc(N3Cc4c(cc(CN5CC(C)(CO)C5)cc4C(F)(F)F)C3=O)c2)CC1

>  <(fold-selectivity)>
1.5x

$$$$
>  <COMPOUND>
Cn1cnnc1[C@H](F)C1(c2cccc(N3Cc4c(Cl)cccc4C3=O)c2)COC1

>  <(fold-selectivity)>
3.1x

$$$$
>  <COMPOUND>
Cn1cnnc1CC1(c2cccc(N3Cc4c(cc(C5CCCN5)cc4C(F)(F)F)C3=O)c2)COC1.O=CO (racemic)

>  <(fold-selectivity)>
1.5x

$$$$
